B1: PPFIA4 (parent)
chain: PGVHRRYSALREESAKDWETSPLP

Variants of: B1
Experiment Summary: protein stability index of a GFP-peptide fusion (GPS, HEK-293T) (PSI 1-6); higher = more stable;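 note: lentivirally expressed fusions sorted by FACS into six bins by GFP to DsRed ratio, PSI derived from sequencing read proportions per bin multiplied by bin number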
Particulars: c terminus: a fixed tail appended
In this section we review reported protein stability index values for a set of variants.
Number only, please.

INSERT INTO measurements (mutation_list, measured_result) VALUES
  ('P24N', 4.43);

Return reported protein stability index; argument: `P1D`
3.93

Recorded protein stability index of `H4E` , please.
4.53

May I ask what protein stability index has been recorded for `Y7G` ?
4.62

Entry `K16N` : reported protein stability index = ?
4.66

Form field: reported protein stability index of `E13A`
3.75

Recorded protein stability index of `S14M` , please.
3.41

Quick one: protein stability index of `S21V` ?
3.76

Can you look up the measured protein stability index of `H4W` for me?
3.15

So what does the record say about protein stability index for `V3S` ?
3.89

I'd like to know its protein stability index. The variant in question is `E13W`
2.64

I would be grateful if you could share the reported protein stability index for `S8Q` .
4.86

Which measured protein stability index value corresponds to `R5Y` ?
3.66

Any idea what its protein stability index is? The variant is `L23Q`
4.37

Any idea what its protein stability index is? The variant is `A9F`
2.91

Returns the measured protein stability index for the input variant. Input: `H4D`
4.37

# input variant: `A9E` ; wanted: its protein stability index
3.92

I have this variant here, `L10H` , and I need its recorded protein stability index.
4.48

Quick check: protein stability index of `V3N` ?
4.45

Requested read-out: protein stability index. Entry: `S8P`
4.28

I would be grateful if you could share the reported protein stability index for `W18E` .
5.15

What value of protein stability index has been recorded for this entry: `Y7R`
4.6
